The reported measurements were obtained from the supplement of paper PMC4022240.

Collected peptide microarray binding signal values appear next to each entry.
target: HaloTag-ING2 PHD (mouse Ing2 200-280); test: peptide microarray binding signal (635 nm), min-max normalized on array (fraction of array maximum); higher = stronger binding; conditions: peptide region: Unmod H1 variant; binder concentration: 100 nM
property_label: peptide microarray binding signal

>>> result("KSPAKAKAVKPKA [Unmod H1 variant K S P A K A K A V K P K A]")
0.0159
>>> result("KAAKPKKAAAKKK [Unmod H1 variant K A A K P K K A A A K K K]")
0.00673
>>> result("IVQAASSSKERGG [Unmod H1 variant I V Q A A S S S K E R G G]")
0.0197
>>> result("SETVPPAPAASAA [Unmod H1 variant S E T V P P A P A A S A A]")
0.00446
